- System: Plasmodium falciparum
- method: Confirmatory screen in NF54 nanoGlo assay, in single point, at 2uM, 72h
- Format: functional, Erythrocyte
- experimental.conditions: timepoint 72 hour
Hit rate of the full screen: of about 4,800 compounds, about 420 (8.8%) showed an effect of 50% or more. Only a selection was taken, and strong results are over-represented in it overall.
measurement.label: % Inhibition
Include the unit right after the number.

CCO[C@@H](C)C(=O)Nc1n[nH]c(Cc2cccc(F)c2)n1 | -1%

Task item: May I ask what % Inhibition has been recorded for O[C@@H](CNCc1ccsc1C(F)(F)F)c1cc(Cl)c2c(c1)OCCO2 ?
Reply: 32%

Task item: Consider the molecule O=C1C2C3C=CC(C3=C(c3ccccc3)c3ccccc3)C2C(=O)N1CCO (stereo not drawn) and give its measured % Inhibition.
Reply: -5%

Task item: Using the record for COc1cc(N)ccc1OCC(F)F , report its % Inhibition.
Reply: 2%

Task item: Find the recorded % Inhibition belonging to COc1cccc([C@H]2CC(=O)Nc3nc(N4CCCCC4)sc32)c1 and report it.
Reply: 6%

---

- Tested on: Plasmodium falciparum
- method: Confirmatory screen in NF54 nanoGlo assay, in single point, at 2uM, 72h
- Assay type: functional, Erythrocyte
- experimental.conditions: timepoint 72 hour
The campaign covered roughly 4,800 compounds. About 420 (8.8%) showed an effect of 50% or more. The entries come from a sample that favours strong results as a whole.
measurement.label: % Inhibition
State the value with its unit after it.

Task item: Dear colleague, I am looking for the recorded % Inhibition of the following compound: Cc1ccc(S(=O)(=O)Nc2cc3nc4ccccc4nc3n2CCc2ccccc2)cc1
Reply: 100%

---

- System: Plasmodium falciparum
- method: Confirmatory screen in NF54 nanoGlo assay, in single point, at 2uM, 72h
- Assay type: functional, Erythrocyte
- experimental.conditions: timepoint 72 hour
The whole screen tested about 4,800 compounds, of which about 420 (8.8%) showed an effect of 50% or more. What follows is part of a selection rich in strong results, with near analogues and random picks from the rest.
measurement.label: % Inhibition (%)
Give the quantity in %, number only.

COCCN1C(=O)C[C@H](Nc2ccc3c(c2)CCC3)C1=O | 1
Cc1cc(NC(=O)Cn2c(=O)n(CCc3ccccc3)c(=O)c3ccccc32)no1 | 4

Task item: Fill in: % Inhibition of COc1ccc(C2CC(c3ccccc3)N(C(C)=O)c3ncnn32)cc1 (stereo not given) is ___
Reply: -9

Task item: Field request: % Inhibition | item: Cn1c(-c2ccc(Br)cc2)c[n+](CC(=O)c2ccc(Br)cc2)c1N
Reply: -8

Task item: Recorded % Inhibition of COc1ccc(C(=O)Nc2nnc([C@H]3CC(=O)N(c4ccc(C)cc4)C3)o2)cc1OC , please.
Reply: -16

Task item: Please look up its % Inhibition: CCn1cc(CN2C(=O)C3CCCCC3C2=O)c(C)n1 (stereo not given)
Reply: -3

Task item: I would be grateful if you could share the reported % Inhibition for Cc1ccc(S(=O)(=O)Nc2c(S(=O)(=O)c3ccccc3)c3nc4ccccc4nc3n2CCc2ccccc2)cc1 .
Reply: 97

Task item: Record request: % Inhibition value, item Cc1ccc(-c2c[n+](-c3ccc(OC(F)F)cc3)c3n2CCCCC3)cc1
Reply: 67

Task item: Which % Inhibition value is on record for COc1ccc(-c2c[n+](-c3ccc(Cl)cc3)c3n2CCCCC3)cc1 ?
Reply: 60

Task item: Look at this molecule and give its reported % Inhibition. COc1ccc(C(=O)C[n+]2cc(-c3ccc(OC)cc3)n3c2CCCC3)cc1
Reply: 60
